Ref: PubChem BioAssay

molecular target: Torsin-1A (Homo sapiens); test: torsin A binders from cell lysate, primary screen, small-molecule microarray, wild-type, 635/667 nm (AID 1149); details: COS7 hTOR1A-WT lysate, 635 nm fluorescence, higher = more signal
observation-type: composite z-score

Please review the following examples before continuing.
COc1cccc([C@H]2Oc3ccc(OC)cc3C(=NOCC[C@@H]3C=C[C@H](OC(C)=O)[C@@H](COC(C)=O)O3)[C@@H]2O)c1    0.186
CCOC(=O)NN=C1C[C@@H](O)[C@@H](O)[C@@H]2[C@@H]3C(=O)N(c4ccc(F)cc4F)C(=O)[C@@H]3CC[C@H]12    0.49
CO[C@@H]1[C@H](O)CO[C@H]1C=Cc1ccccc1    -0.518

So what does the record say about composite z-score for CC(=O)OC[C@H]1O[C@H](CC=NOC(C)CN2CCCc3nc(C)c(C)cc32)C=C[C@@H]1OC(C)=O (some centres undefined) ?
1.19

* * *

test system: PRMT1 (protein arginine N-methyltransferase 1); test: PRMT1 binders on small-molecule microarrays, primary screen, biochemical, small-molecule microarray, 635 nm fluorescence (AID 1088); settings: small-molecule microarray binding, higher = more signal;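 also: binding of Prmt1 protein to compounds spotted on small-molecule microarray slides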
Tag: Satisfied if measured composite z-score is not below 1, Not satisfied if it is.

// below: answered compounds
COc1ccc(COC(=O)NN=C2C[C@@H](O)[C@@H](O)[C@@H]3[C@@H]4C(=O)N(C[C@@H]5CCCO5)C(=O)[C@@H]4CC[C@@H]23)cc1    Not satisfied
CC(C)=NOC[C@@H](O)[C@H]1O[C@@H]2OC(C)(C)O[C@@H]2[C@H]1O    Not satisfied
CCN1C(=O)[C@H]2[C@H]3[C@H](O)[C@H](O)CC(=NOCC[C@@H]4C=C[C@H](OC(C)=O)[C@@H](COC(C)=O)O4)[C@@H]3CC[C@H]2C1=O    Not satisfied
COC(=O)[C@H](C)NC(=O)CCC1CC(OC(=O)NCc2ccc3c(c2)OCO3)CC2(CCCC(COC(=O)NCCc3ccc(Cl)cc3)O2)O1 (some centres undefined)    Not satisfied
C[C@@H]1CC[C@H]2C(=O)OC(CN3C(=O)c4ccccc4C3=O)CN2[C@H]1c1ccc(Br)cc1 (some centres undefined)    Not satisfied

Check the entry COC(=O)[C@H](C)NC(=O)CCC1CC(OC(=O)NCc2cccc3ccccc23)CC2(CCCC(COC(=O)NCCCN3CCCC3=O)O2)O1 (some centres undefined) : does composite z-score equal or exceed 1?
Satisfied

Check the entry CCOC(=O)[C@H](CC(C)C)NC(=O)CCC1CC(OC(=O)NCc2ccc3c(c2)OCO3)CC2(CCCC(COC(=O)NCCc3ccccc3OC)O2)O1 (some centres undefined) : does composite z-score equal or exceed 1?
Satisfied

Check the entry CCN1C(=O)[C@H]2[C@H]3[C@H](O)[C@H](O)CC(=NO[C@@H](C)c4cc(-c5c(C)cc(C)cc5C)no4)[C@@H]3CC[C@H]2C1=O : does composite z-score equal or exceed 1?
Satisfied

Check the entry CC(=O)OC[C@H]1O[C@@H](ON=C(C)CCC(=O)OC[C@H]2O[C@H](C#Cc3ccccc3)C=C[C@@H]2Oc2ccc(C)cc2)[C@H](OC(C)=O)[C@@H](OC(C)=O)[C@@H]1OC(C)=O : does composite z-score equal or exceed 1?
Satisfied

* * *

Measured z-score values are reported for all entries that follow.
assay: E. coli growth modulation, two-sided OD650, primary screen, E. coli filamentation project, strain DRC41, 24 h (AID 1093); conditions: OD650, 24 h, higher = more signal, called active from +8 up or from −8 down;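 also: MC1000 strain lacking acrAB efflux and sulA so SOS filamentation is blocked; test concentration not given here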
// no unit string in output, number only

COCOc1ccc(Br)cc1C(=O)C=Cc1ccc2c(c1)OCO2    0.368
CON=C(C)CCN1CCc2nc(-c3ccccc3)c(-c3ccccc3)cc2C1    1.69

So what does the record say about z-score for CCOC(=O)[C@H](CC(C)C)NC(=O)CCC1CC(OC(=O)NCc2ccc3c(c2)OCO3)CC2(CCCC(COC(=O)NCCOC)O2)O1 (some centres not stated) ?
-0.172

So what does the record say about z-score for O=C1C2=CC[C@H]3C(=O)N(C[C@@H]4CCCO4)C(=O)[C@H]3[C@H]2[C@H](O)[C@@H]2O[C@H]12 ?
-0.0137

* * *

assay: cell viability in Huh7 cells, primary screen, cytotoxicity control for HCV replication inhibitor project, CellTiter-Glo luminescence, basal, 48 h (AID 1143); settings: Huh7 HCV replicon, higher = more signal, called active from +8 up or from −8 down;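 also: Huh7 hepatoma cells carrying a hepatitis C replication reporter with no stimulus; test concentration not given here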
observation-type: z-score
// no unit string in output, number only

CC(C)=CCCC(C)=CCON=C1[C@H]2CCn3c(=O)n(-c4ccccc4)c(=O)n3[C@H]2[C@H](O)[C@@H]2O[C@H]12    -1.7
COC(=O)CC=C1c2ccccc2[C@H](OC)[C@H]1C    0.553
COC(=O)[C@H](C)NC(=O)CCC1CC(OC(=O)NCc2cccc3ccccc23)CC2(CCCC(COC(=O)NCCC(C)C)O2)O1 (some centres not stated)    -0.842

We now examine a further compound.
So what does the record say about z-score for CC#CCOCCC=C1c2ccccc2[C@@H](OC)[C@@H]1C ?
0.447

* * *

Measured z-score values are reported for all entries that follow.
assay: fission yeast growth modulation, primary screen, strain 972, OD600, 24 h, no modulator (AID 1090);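 also: basal condition with compound alone and no growth modifier present; test concentration not given here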; details: S. pombe 972 growth, higher = more signal, called active from +8 up or from −8 down
Activity calls are given as the source filed them.

So what does the record say about z-score for CC(C)[C@H](NC(=O)OC(C)(C)C)[C@@H](O)CC(=O)C(C)(C)C ?
0.0646 (inactive)

So what does the record say about z-score for O=C1C[C@@H](O)[C@@H](O)[C@@H]2[C@@H]3C(=O)N(Cc4ccccc4)C(=O)[C@@H]3CC[C@H]12 ?
-0.253 (inactive)

So what does the record say about z-score for O=C1[C@H]2[C@H]3[C@H](O)[C@H](O)CC(=NOC[C@@H](O)COCc4ccco4)[C@@H]3CC[C@H]2C(=O)N1c1cccc(Oc2ccccc2)c1 ?
-0.512 (inactive)

So what does the record say about z-score for C[C@@H]1CC[C@H]2C(=O)O[C@@H](COc3ccc(C(C)(C)C)cc3)CN2[C@H]1c1ccc(Br)cc1 ?
-0.0416 (inactive)

So what does the record say about z-score for COc1cccc([C@H](O)Cn2cc(-c3ccc(CON=C(C)C)cc3)nn2)c1 ?
0.16 (inactive)

So what does the record say about z-score for C[C@@H](c1ccccc1)N1C(=O)[C@H]2[C@H]3[C@H](O)[C@H](O)CC(=NOC[C@@H](O)COCc4ccco4)[C@H]3CC[C@H]2C1=O ?
0.453 (inactive)

So what does the record say about z-score for COc1ccc(OC[C@@H](CO)OC)cc1 ?
-0.199 (inactive)

So what does the record say about z-score for COC(=O)[C@@H]1CC[C@H](C)[C@@H](c2ccc(Br)cc2)N1C(=O)C(F)(F)F ?
0.186 (inactive)

So what does the record say about z-score for CCOC(=O)[C@H](Cc1ccccc1)NC(=O)CCC1CC(OC(=O)NCCc2ccc(F)cc2)CC2(CCCC(COC(=O)NCCOc3ccccc3)O2)O1 (some centres not stated) ?
0.549 (inactive)

* * *

experiment: basal S. cerevisiae growth modulation, no modifier, primary screen, OD600, strain BY4716, 24 h, basal condition (AID 1173); conditions: OD600, 24 h, higher = more signal, called active from +8 up or from −8 down
observation-type: z-score
// no unit string in output, number only

Please review the following examples before continuing.
C=C(C)C(=O)OC[C@H]1CN2[C@@H](CC[C@@H](C)[C@@H]2c2ccc(Br)cc2)C(=O)O1    -1.84
C[C@@H]1CC[C@H]2C(=O)OC(CN3C(=O)c4ccccc4C3=O)CN2[C@H]1c1ccc(Br)cc1 (stereo not given in full)    -0.501
O=C1C[C@@H](O)[C@@H](O)[C@@H]2[C@@H]3C(=O)N(c4ccc(F)cc4F)C(=O)[C@@H]3CC[C@H]12    0.021
CC(C)=NO[C@@H](C)c1cn([C@H](CO)Cc2ccccc2)nn1    -1.16

We now examine a further compound.
So what does the record say about z-score for CON=C[C@@H](OC)[C@H](C)C=CCC(=O)OC ?
-0.117

* * *

test system: Human papillomavirus type 1a protein E7 (residues 44-93); test: HPV1a E7 fragment binders on microarrays, primary screen, biochemical, small-molecule microarray, residues 44-93, 635 nm fluorescence (AID 1108); conditions: small-molecule microarray binding, fluorescence 635 nm; higher = more signal;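 also: E7 fragment applied at 1 µg/mL in TBST for 1 h at 4 C; score combines spot fluorescence with its signal to noise ratio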
observation-type: composite z-score
// no unit string in output, number only

Please review the following examples before continuing.
COc1ccc(COC(=O)NN=C2C[C@@H](O)[C@@H](O)[C@@H]3[C@@H]4C(=O)N(C5CCCCC5)C(=O)[C@@H]4CC[C@@H]23)cc1    0.14
Cc1cc(C)c(-c2cc([C@H](C)ON=C[C@@H](C)[C@H](OCc3ccccc3)C(C)C)on2)c(C)c1    -1.42
CC(C)CN1CCc2nc(-c3ccccc3)c3c(c2C1)CO[C@@H](C)C3    1.01
CC(=O)OC[C@H]1O[C@H](CCON=C(C)C)C=C[C@@H]1OC(C)=O    -0.306
CC(C)=CCCC(C)=CCON=C1C[C@@H](O)[C@@H](O)[C@@H]2[C@@H]3C(=O)N(Cc4ccc5c(c4)OCO5)C(=O)[C@@H]3CC[C@@H]12    0.909

So what does the record say about composite z-score for O=C1C[C@@H](O)[C@@H](O)[C@@H]2[C@@H]3C(=O)N(Cc4ccccc4)C(=O)[C@@H]3CC[C@H]12 ?
-0.234

So what does the record say about composite z-score for CCN1C(=O)[C@H]2[C@H]3[C@H](O)[C@H](O)CC(=NO[C@@H]4O[C@H](CO)[C@@H](O)[C@H](O)[C@H]4O)[C@H]3CC[C@H]2C1=O ?
0.442
